Test system: HL-60
test-summary: NCI tumour cell line growth inhibition, 48 h
The source made the active and inactive calls. Cut-off read from the data, not from the text of the source: active = GI50 up to about 1.1 µM and inactive = higher.
Bench note: report the call from t = active, f = inactive

compound | class-assignment
COC(=O)C1(C)NCCc2c1[nH]c1ccccc21 (stereo not given) | f
O=C(c1cc(Cl)cc(Cl)c1)N(C(=O)N1CCN(c2ccccc2)CC1)c1ccccc1 | f

How was NC(=O)C(=O)Cc1nc2ccccc2s1 classified in this test? f

Same thing, different compound: COC(=O)/C=C(/C(=O)OC)c1cc2ccc3c([nH]c4ccccc43)c(C)c-2c1 f

Same thing, different compound: O=C(O)C1C(C(=O)Nc2ccc3c(c2)Cc2ccccc2-3)C2(Cl)C(Cl)=C(Cl)C1(Cl)C2(Cl)Cl (stereo not given) f

###

Test system: A498
test-summary: NCI tumour cell line growth inhibition, 48 h
Active and inactive are the calls of the source. Rule as the data show it: active = GI50 up to about 1.1 µM and inactive = higher.
Bench note: report the call from true for active, false for inactive

molecule | assay-system | class-assignment
O=C(CCc1ccccc1)NCCc1ccc(O)c(O)c1 | A498 | false

Continue with the molecule presented below.
How was CC(O)C1(CNc2cc(Cl)nc(N)n2)CCCCC1 (stereo not drawn) classified in this test? false

###

Tested on: MOLT-4
test-summary: NCI tumour cell line growth inhibition, 48 h
Active and inactive are the calls of the source. No stated cut-off is given here; in the data, active = GI50 up to about 1.1 µM and inactive = higher.
Bench note: report the call from active, inactive

molecule | class-assignment
C=C1OC2OC(C)C(NC(=O)OCC(Cl)(Cl)Cl)C(OC(C)=O)C2O1 (stereo unspecified) | inactive
CCOC(=O)Cc1nn2c(=O)cc(C)nc2s1 | inactive
CC1(C)[N+]([O-])=[N+]([O-])C1(C)Br (stereo unspecified) | inactive
Cc1ccc(C(=O)NC2C(=O)NC(C(C)C)C(=O)N3CCCC3C(=O)N(C)CC(=O)N(C)C(C(C)C)C(=O)OC2C)c2c1Oc1c(c(C(=O)NC3C(=O)NC(C(C)C)C(=O)N4CCCC4C(=O)N(C)CC(=O)N(C)C(C(C)C)C(=O)OC3C)c3nc(-c4ccccc4)c(=O)oc3c1C)N2 (stereo unspecified) | active
CC1(C)C2CCC13CS(=O)(=O)N1O[C@]13C(=O)O2 (stereo partly specified) | inactive
C/C=C/C(=O)Oc1cccc2cccnc12 | inactive
CC1=N/C(=C\c2cccc3ccccc23)C(=O)O1 | inactive
Cc1ccc(OCC2OC(n3cnc4nc(N)nc(Cl)c43)CC2Oc2ccc(C)cc2)cc1 (stereo unspecified) | inactive
CC1(c2nc3ccccc3[nH]2)CCC(C(=O)O)C(C)(C)O1 (stereo unspecified) | inactive
COc1cc(CC2c3cc(OC)c(OC)cc3CCN2C)c(Oc2cc3c(cc2OC)-c2c(OC)c(OC)c(OC)c4c2C(C3)N(C)CC4)cc1OC (stereo unspecified) | inactive

How was CC(=O)Oc1c(C)cc(-c2cc(C)c(OC(C)=O)c(C)c2)cc1C classified in this test? inactive

Same thing, different molecule: CSc1[nH]cnc1C(N)=S inactive

Same thing, different molecule: Cc1cc(S(=O)(=O)Nc2nc3ccccc3nc2-c2ccc(Cl)cc2)c(S)cc1Cl inactive

Same thing, different molecule: Cc1cc(C)c2c(O)cc(-c3ccc(F)cc3)nc2n1 inactive

Same thing, different molecule: NC(=O)c1ncn2c1NCC1OC2C(O)C1O (stereo unspecified) inactive

###

Tested on: RXF 631
test-summary: NCI tumour cell line growth inhibition, 48 h
Activity calls are given as the source filed them. No stated cut-off is given here; in the data, active = GI50 up to about 1.1 µM and inactive = higher.
Bench note: report the call from active, inactive

Use the examples below as a reference point.
molecule | class-assignment
C[C@]12C/C(=C/O)C(=O)C(O)=C1CC[C@@H]1C2CC[C@@]2(C)C1CC[C@@H]2O (stereo partly specified) | inactive
C[S+]=c1sc2ccccc2s1 | inactive
N#C/C(=C\c1ccccc1O)C(N)=O | inactive

How was Nc1ccn(CCOC(=O)c2ccccc2)c(=O)n1 classified in this test? inactive

Same thing, different molecule: CN(C)CCCNc1ccc2ncn3c4ccc(O)cc4c(=O)c1c23 active

Same thing, different molecule: CC1CC(=O)Nc2ccccc2N1C(=O)CN1CCC(CCCCN(C)C)CC1 (stereo unspecified) inactive

Origin of values: ChEMBL document CHEMBL1201862
